B1: library; numbered along this chain (parent)
chain: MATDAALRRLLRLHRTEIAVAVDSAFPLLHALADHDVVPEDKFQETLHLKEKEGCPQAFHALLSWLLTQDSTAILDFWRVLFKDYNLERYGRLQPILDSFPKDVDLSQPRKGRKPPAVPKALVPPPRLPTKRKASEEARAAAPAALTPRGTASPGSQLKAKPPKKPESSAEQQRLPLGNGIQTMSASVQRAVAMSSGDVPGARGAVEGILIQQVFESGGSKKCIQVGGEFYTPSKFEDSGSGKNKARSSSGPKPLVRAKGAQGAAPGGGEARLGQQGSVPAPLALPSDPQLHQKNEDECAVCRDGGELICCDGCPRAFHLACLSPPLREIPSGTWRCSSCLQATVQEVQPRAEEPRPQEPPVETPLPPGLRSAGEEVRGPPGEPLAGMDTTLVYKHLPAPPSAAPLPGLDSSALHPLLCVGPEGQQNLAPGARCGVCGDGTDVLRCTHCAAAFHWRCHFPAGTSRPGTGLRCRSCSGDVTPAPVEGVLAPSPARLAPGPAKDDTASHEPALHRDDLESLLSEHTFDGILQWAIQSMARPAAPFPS

# Variants of: B1
# protocol description: AIRE transcriptional activation functional score (insulin promoter-GFP; nonsense median 0, synonymous median 1) (normalised score); higher = higher AIRE activity (more reporter activation)
# condition info: with insulin promoter-GFP reporter in HEK293
Classification field: enter 1 (yes) for AIRE transcriptional activation functional score values not below 0.9, 0 (no) for values below it.

# example entries with known answers
- variant descriptor: "E508S"
  cat: "0 (no)"
- variant descriptor: "C437L"
  cat: "0 (no)"
- variant descriptor: "A432W"
  cat: "1 (yes)"
- variant descriptor: "E354I"
  cat: "1 (yes)"
- variant descriptor: "A73Y"
  cat: "0 (no)"
- variant descriptor: "A142D"
  cat: "1 (yes)"

**Q:** Textbook exercise: given the entry "K120S" , state whether its AIRE transcriptional activation functional score is greater than or equal to 0.9.
**A:** 1 (yes)

**Q:** Textbook exercise: given the entry "A19F" , state whether its AIRE transcriptional activation functional score is greater than or equal to 0.9.
**A:** 0 (no)

**Q:** Textbook exercise: given the entry "P126S" , state whether its AIRE transcriptional activation functional score is greater than or equal to 0.9.
**A:** 0 (no)

**Q:** Textbook exercise: given the entry "L418D" , state whether its AIRE transcriptional activation functional score is greater than or equal to 0.9.
**A:** 0 (no)
